target: HLA-B*5401 (human); test: competition vs 125I-labeled standard peptide, purified HLA
METRIC: IC50
Show the value, then the unit it is measured in.

Entry FPLTSIISI (9-mer analog of the HER2/neu peptide starting at position 649) [Her2/neu.649.F1I9] ; IC50 = 1.5 nM

Entry FPLTSIISAI (10-mer analog of the HER2/neu peptide starting at position 649) [Her2/neu.649.F1I10] ; IC50 = 3.3 nM

Entry FPAEQRASPL (10-mer analog of the HER2/neu peptide starting at position 642) [Her2/neu.642.F1] ; IC50 = 286 nM

Entry FPIKWMAL (8-mer analog of the HER2/neu peptide starting at position 884; also called FPIKWMAL) [Her2/neu.884.F1] ; IC50 = 40 nM

Entry FPLTSIISAV (10-mer analog of the HER2/neu peptide starting at position 649; same label as the 9-mer in r40) [Her2/neu.649.F1, 10-mer] ; IC50 = 1.2 nM

Entry FPKANKEII (9-mer analog of the HER2/neu peptide starting at position 760) [Her2/neu.760.F1I9] ; IC50 = 39 nM

Entry SPLTSIISI (9-mer analog of the HER2/neu peptide starting at position 649) [Her2/neu.649.I9] ; IC50 = 217 nM

Entry FPLTSIISA (9-mer analog of the HER2/neu peptide starting at position 649; same label as the 10-mer in r43) [Her2/neu.649.F1, 9-mer] ; IC50 = 1.4 nM

Entry FPLTPSGAI (9-mer analog of the HER2/neu peptide starting at position 698) [Her2/neu.698.F1I9] ; IC50 = 1.9 nM

Entry FPAEQRASPI (10-mer analog of the HER2/neu peptide starting at position 642) [Her2/neu.642.F1I10] ; IC50 = 56 nM

Entry FPYDGIPA (8-mer analog of the HER2/neu peptide starting at position 921) [Her2/neu.921.F1] ; IC50 = 1 nM

Entry FPYDGIPI (8-mer analog of the HER2/neu peptide starting at position 921) [Her2/neu.921.F1I8] ; IC50 = 56 nM

Entry FPLTPSGAM (9-mer analog of the HER2/neu peptide starting at position 698) [Her2/neu.698.F1] ; IC50 = 91 nM

Entry FPIKWMAI (8-mer analog of the HER2/neu peptide starting at position 884) [Her2/neu.884.F1I8] ; IC50 = 33 nM

Entry SPLTSIISAV (10-mer native HER2/neu peptide starting at position 649) [Her2/neu.649, 10-mer] ; IC50 = 667 nM

Entry FPNQAQMRIL (10-mer analog of the HER2/neu peptide starting at position 706; same label as the 9-mer in r49) [Her2/neu.706.F1, 10-mer] ; IC50 = 31 nM

Entry FPNQAQMRII (10-mer analog of the HER2/neu peptide starting at position 706) [Her2/neu.706.F1I10] ; IC50 = 59 nM

Entry FPNQAQMRI (9-mer analog of the HER2/neu peptide starting at position 706; same label as the 10-mer in r51) [Her2/neu.706.F1, 9-mer] ; IC50 = 4.5 nM

Source listed as patent US20040018971A1.
